Origin of measurements: paper PMC9388863

test system: BCRP; assay: in vitro; settings: human, not told

[
  {
    "Molecule": "C[C@]12CC[C@H]3[C@@H](CCC4=CC(=O)CC[C@@]43C)[C@@H]1CC[C@@H]2O [testosterone, Testosterone]",
    "efflux ratio": 1.95
  }
]
